Reference for the values: patent US9533977B2

Biological target: CETP (Homo sapiens)
Sequence (P11597 18-493): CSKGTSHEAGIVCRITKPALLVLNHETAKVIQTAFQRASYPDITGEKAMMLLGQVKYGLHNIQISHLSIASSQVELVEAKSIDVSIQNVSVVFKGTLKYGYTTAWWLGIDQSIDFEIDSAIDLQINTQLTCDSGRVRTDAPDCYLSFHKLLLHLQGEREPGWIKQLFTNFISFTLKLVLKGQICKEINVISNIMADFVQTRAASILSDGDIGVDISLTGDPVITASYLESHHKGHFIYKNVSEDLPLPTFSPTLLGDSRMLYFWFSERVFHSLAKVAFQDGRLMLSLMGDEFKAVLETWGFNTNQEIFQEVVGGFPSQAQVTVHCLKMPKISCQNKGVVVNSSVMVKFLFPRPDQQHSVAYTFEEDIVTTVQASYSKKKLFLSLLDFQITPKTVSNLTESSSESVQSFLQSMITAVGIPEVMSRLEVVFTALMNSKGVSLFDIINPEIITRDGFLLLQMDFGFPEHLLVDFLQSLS
Test: Inhibitory activity against CETP in human plasma (Roar CETP activity kit, fluorescence)
Details: plasma from healthy men diluted 1:10 in assay buffer, 37° C., 3 hrs, fluorescence 465/535 nm; read-out: IC50, Inhibition of CETP Activity in Human Plasma
pIC50: −log10 of the molar value.
readout_type: pIC50

A: CCN(C[C@H]1CC[C@H](CC(=O)O)CC1)c1ncc(-c2cn(C)nc2C)nc1CN1C(=O)OC(c2cc(C(F)(F)F)cc(C(F)(F)F)c2)[C@@H]1C (stereo partly drawn)
B: CCN(c1ncc(-c2ccccc2)cc1CN1C(=O)O[C@H](c2cc(C(F)(F)F)cc(C(F)(F)F)c2)[C@@H]1C)C1CCOCC1
C: CCN(C[C@H]1CC[C@H](CC(=O)O)CC1)c1ncc(N2CCCC2)nc1CN1C(=O)OC(c2cc(C(F)(F)F)cc(C(F)(F)F)c2)[C@@H]1C (stereo partly drawn)
## Task Sort these compounds on pIC50 so the largest reading comes first. Give the labels in the order requested.
## Result C, B, A
(C: 8.49, B: 7.57, A: 7.34)
